- tgt: Human HDAC11 (Homo sapiens (Human))
- Sequence (Q96DB2 whole entry): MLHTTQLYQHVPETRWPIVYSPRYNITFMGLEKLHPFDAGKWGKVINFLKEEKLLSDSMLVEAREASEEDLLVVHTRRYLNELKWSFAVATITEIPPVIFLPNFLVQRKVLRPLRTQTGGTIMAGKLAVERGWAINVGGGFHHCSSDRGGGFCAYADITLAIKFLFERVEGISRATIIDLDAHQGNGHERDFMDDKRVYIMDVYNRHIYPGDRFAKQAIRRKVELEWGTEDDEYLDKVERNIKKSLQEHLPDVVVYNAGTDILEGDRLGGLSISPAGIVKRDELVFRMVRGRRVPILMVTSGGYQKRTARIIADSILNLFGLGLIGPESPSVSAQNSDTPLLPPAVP
pIC50: −log10 of the molar value.
metric-name: pIC50

> print(dat)
                                   compound  observed.value
1  O=C(NO)c1ccc(Cn2sc3ncccc3c2=O)cc1 [RBC-3001-A]            5.55

* * *

- tgt: Human HDAC1 (Homo sapiens (Human))
- Sequence (Q13547 whole entry): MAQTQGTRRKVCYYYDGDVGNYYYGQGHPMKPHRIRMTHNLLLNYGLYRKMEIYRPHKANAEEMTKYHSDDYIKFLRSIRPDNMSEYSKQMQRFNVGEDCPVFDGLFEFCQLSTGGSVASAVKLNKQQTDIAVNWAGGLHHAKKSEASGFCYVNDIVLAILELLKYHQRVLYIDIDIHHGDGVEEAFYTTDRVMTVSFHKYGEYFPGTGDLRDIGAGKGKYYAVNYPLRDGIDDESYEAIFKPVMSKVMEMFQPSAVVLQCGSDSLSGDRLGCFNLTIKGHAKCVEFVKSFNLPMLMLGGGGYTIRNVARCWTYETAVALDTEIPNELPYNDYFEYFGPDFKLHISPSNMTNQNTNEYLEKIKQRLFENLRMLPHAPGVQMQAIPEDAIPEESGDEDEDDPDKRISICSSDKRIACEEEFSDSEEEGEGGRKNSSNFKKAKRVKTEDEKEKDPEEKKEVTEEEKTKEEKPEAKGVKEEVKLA
pIC50: −log10 of the molar value.
metric-name: pIC50

> print(dat)
                        smiles.input  observed.value
1  O=C(NO)c1ccc(Cn2sc3ncccc3c2=O)cc1            6.76

* * *

- tgt: Recombinant human HDAC6 (Homo sapiens (Human), UniProt Q9UBN7)
- Sequence (Q9UBN7 whole entry): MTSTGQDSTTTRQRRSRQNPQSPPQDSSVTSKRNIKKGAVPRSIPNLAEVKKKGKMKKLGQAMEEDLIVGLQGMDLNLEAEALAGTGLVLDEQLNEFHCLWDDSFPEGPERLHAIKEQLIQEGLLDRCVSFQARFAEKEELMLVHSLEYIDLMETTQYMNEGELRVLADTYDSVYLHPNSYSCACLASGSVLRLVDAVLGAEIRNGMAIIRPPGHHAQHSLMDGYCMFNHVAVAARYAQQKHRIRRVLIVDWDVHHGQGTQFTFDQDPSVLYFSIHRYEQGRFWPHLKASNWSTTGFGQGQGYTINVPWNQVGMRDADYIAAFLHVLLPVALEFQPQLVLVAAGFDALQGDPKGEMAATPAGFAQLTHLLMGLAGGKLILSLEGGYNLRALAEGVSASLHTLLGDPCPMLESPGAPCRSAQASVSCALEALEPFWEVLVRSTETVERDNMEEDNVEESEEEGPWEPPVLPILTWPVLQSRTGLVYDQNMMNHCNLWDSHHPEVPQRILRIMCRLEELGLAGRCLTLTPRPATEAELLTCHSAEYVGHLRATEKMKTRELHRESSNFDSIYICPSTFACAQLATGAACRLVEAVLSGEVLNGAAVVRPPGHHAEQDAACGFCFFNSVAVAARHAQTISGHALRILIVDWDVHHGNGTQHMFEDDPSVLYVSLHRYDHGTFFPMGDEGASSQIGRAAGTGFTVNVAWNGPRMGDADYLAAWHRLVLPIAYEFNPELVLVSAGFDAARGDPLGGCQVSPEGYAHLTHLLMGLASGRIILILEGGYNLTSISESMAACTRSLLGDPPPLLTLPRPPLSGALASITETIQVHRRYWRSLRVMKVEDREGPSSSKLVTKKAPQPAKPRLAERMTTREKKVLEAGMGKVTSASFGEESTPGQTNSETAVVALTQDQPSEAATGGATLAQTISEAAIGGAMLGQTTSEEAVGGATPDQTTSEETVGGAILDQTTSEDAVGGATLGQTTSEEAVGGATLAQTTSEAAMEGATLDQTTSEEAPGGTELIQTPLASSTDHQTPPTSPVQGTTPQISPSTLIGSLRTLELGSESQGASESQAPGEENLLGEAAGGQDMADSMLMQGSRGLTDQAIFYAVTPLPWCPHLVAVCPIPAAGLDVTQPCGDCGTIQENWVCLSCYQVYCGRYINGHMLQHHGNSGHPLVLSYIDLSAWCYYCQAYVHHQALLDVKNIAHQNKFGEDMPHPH
- protocol-description: HDAC6 biochemical fluorescent activity assay
- applied-conditions: substrate Arg-His-Lys-Lys(Ac)
metric-name: IC50 (nM)

> print(dat)
                                   molecule                                       tgt  metric.name  observed.value
1  O=C(NO)c1ccc(Cn2sc3ncccc3c2=O)cc1 [RBC-3001-A]  Recombinant human HDAC6 (Homo sapiens (Human), UniProt Q9UBN7)         IC50           0.958
